target: Neurogenic locus notch homolog protein 3 (Homo sapiens); assay: small molecules binding NOTCH3 protein – biochemical, 635/667 nm fluorescence, primary screen (AID 1096); details: small-molecule microarray, 635 nm fluorescence, higher = more signal
Each entry below carries its recorded composite z-score.

# compound, composite z-score
data = [
    ("COC(=O)c1c(CC[C@@H](CO)NC(=O)N[C@@H](C)Cn2cc(C3(O)CCCC3)nn2)oc(C(C)=O)c1C(=O)OC", 0.634),
    ("CCCNC(=O)[C@@]1(Sc2ccc(C)cc2)CC(=O)N(Cc2ccccc2)[C@@H]1c1ccc(CO)cc1I", 0.282),
    ("COC(=O)[C@@]1(Cc2ccc(OC)cc2)[C@H]2c3cc(C(=O)N4CCCC4)n(CCF)c3C[C@H]2CN1C(=O)c1ccccc1", 1.12),
    ("COc1ccc(C#Cc2ccc3c(c2)[C@]2(C(=O)N3)[C@H](C(N)=O)[C@H]3C(=O)O[C@H](c4ccccc4)[C@H](c4ccccc4)N3[C@@H]2c2ccc(O)cc2)cc1", 0.664),
    ("O=C1OCCC=C[C@H]2OC34C=CCN(Cn5nnc6ccccc65)C(=O)[C@H]3N(CCCCCO)C(=O)[C@@H]4C12 (stereo partly specified)", -0.135),
    ("CCCCC=C[C@@H](NC(=O)CCc1ccccc1)c1ccccc1", 1.12),
    ("CCCC=C(CCC)[C@@H](NS(=O)(=O)CC)c1ccccc1", 1.16),
    ("C=CCC(OC(C)=O)[C@@H]1[C@@H](N(Cc2ccc(-c3ccccc3)cc2)C(=O)Cc2ccc(OC)cc2)c2cc(OCCCO)ccc2N1C(=O)c1ccc(-c2ccccc2)cc1 (stereo partly specified)", -0.255),
    ("CN1C(=O)C2C=CC(C(O)C3CCCCC3)N(N(c3ccccc3)c3ccccc3)C2C1=O (stereo unspecified)", -0.396),
    ("CN1C(=O)C2C=CC(C(O)c3ccc(F)cc3)N(N3CCCCC3)C2C1=O (stereo unspecified)", 0.721),
    ("CC(C)[Si](C#C[Si](C(C)C)(C(C)C)C(C)C)(O[C@H](C)c1cn(Cc2cccc(Cl)c2)nn1)C(C)C", 0.902),
    ("COCC(=C=CC[C@@H](O)c1ccccc1OCCO)C[C@@H](O)COCc1ccccc1", -0.0082),
    ("COCC(=C=CC[C@@H](O)c1ccccc1OCCO)C[C@@H](O)c1ccccn1", 0.88),
    ("COCCOC(=O)N1C(=O)[C@@]2(c3cc(C#Cc4ccc(OC)cc4)ccc31)[C@H](c1ccc(OCCO)cc1)N1[C@H](c3ccccc3)[C@H](c3ccccc3)OC(=O)[C@H]1[C@@H]2C(N)=O", 1.02),
    ("O=C1c2ccccc2C(=O)C2CC([C@H]3Oc4ccccc4S(=O)(=O)N4CCC[C@@H]34)=CCC12 (stereo partly specified)", -0.42),
    ("COC(=O)[C@@]1(Cc2ccc(F)cc2)[C@H]2c3cc(C(=O)N4CCCC4)n(Cc4ccccc4)c3C[C@H]2CN1C(=O)c1ccccc1", 0.783),
]

----------
biological target: Follistatin (Homo sapiens); assay: FST protein binding to printed compounds – biochemical, small-molecule microarray, 635/667 nm fluorescence, primary screen (AID 1132); conditions: 635 nm fluorescence, higher = more signal
property: composite z-score

# compound, target or test system, property, result
measured = [
    ("C=CCC(OC(C)=O)[C@@H]1[C@@H](N(Cc2ccc(-c3cccc(C(F)(F)F)c3)o2)C(=O)c2cccc3ccccc23)c2cc(OCCCO)ccc2N1C(=O)c1ccc(-c2ccccc2)cc1 (stereo partly drawn)", "Follistatin (Homo sapiens)", "composite z-score", 0.999),
    ("CC(C)CNC(=O)[C@@]1(C)c2ccccc2C(=O)N(Cc2ccccc2)[C@H]1c1ccc(CO)cc1", "Follistatin (Homo sapiens)", "composite z-score", -0.976),
    ("COCCOC(=O)N1C(=O)[C@@]2(c3cc(C#Cc4ccc(OC)cc4)ccc31)[C@H](C(N)=O)[C@H]1C(=O)O[C@H](c3ccccc3)[C@H](c3ccccc3)N1[C@@H]2c1ccc(OCCO)cc1", "Follistatin (Homo sapiens)", "composite z-score", 1.28),
]

----------
Some molecules, each annotated with its measured composite z-score.
target: Fibroblast growth factor 2 (Homo sapiens); assay: basic fibroblast growth factor binding to printed compounds – biochemical, small-molecule microarray, 635/667 nm fluorescence, primary screen (AID 1133); conditions: FGF2, fluorescence 635/667, higher = more signal

# molecule, composite z-score
records = [
    ("C[C@]12C(=O)N(CCCO)[C@@H]3C(=O)N(c4ccc(Cl)cc4)CC=CC31O[C@@H]1/C=C\\CCCOC(=O)C12 (stereo partly specified)", -1.72),
    ("O=C(O)[C@]1(CCS(=O)(=O)c2ccccc2)N=C(c2ccc(OCCCO)cc2)O[C@@H]1c1ccccc1", -0.0377),
    ("COC(=O)[C@]1(Cc2ccccc2N=[N+]=[N-])N=C(c2ccc(OCCCO)cc2)O[C@@H]1c1ccccc1", -0.101),
    ("O=C1O[C@@H](c2ccccc2)[C@@H](c2ccccc2)N2[C@@H](c3ccc(O)cc3)[C@]3(C(=O)Nc4ccc(C#CC5=CCCCC5)cc43)[C@@H](C(=O)Nc3nc4ccccc4s3)[C@H]12", 1.35),
    ("O=C1CSC(c2cccc([N+](=O)[O-])c2)N1c1ccccc1 (stereo unspecified)", 0.481),
    ("CCCCC(O)C1C=CC2C(=O)N(Cc3ccccc3)C(=O)C2N1n1cnnc1 (stereo unspecified)", -0.0025),
    ("NC(=O)NCC#Cc1ccc2c(c1)[C@]1(C(=O)N2)[C@H](c2ccc(O)cc2)N2[C@H](c3ccccc3)[C@H](c3ccccc3)OC(=O)[C@H]2[C@@H]1C(N)=O", -0.219),
    ("CO[C@H]1O[C@H](CO)[C@@H](OC(=O)Nc2cccc(F)c2)[C@H](OC(=O)Nc2ccc3c(c2)OCO3)[C@H]1OC(=O)Nc1ccc2c(c1)OCO2", 0.819),
    ("O=C1OCC=C[C@H]2OC34C=CCN(CCN5CCOCC5)C(=O)[C@H]3N(CCCCCO)C(=O)[C@@H]4[C@@H]12 (stereo partly specified)", -0.12),
    ("[N-]=[N+]=NCc1ccccc1[C@H]1OC(c2ccc(OCCCO)cc2)=N[C@@]1(Cc1ccccc1)C(N)=O", -0.135),
    ("CCCC=C(CCC)[C@@H](NS(=O)(=O)CC)c1ccccc1", 0.152),
    ("CCCC[C@H]1OB(O)C[C@H]2C1=C(COc1ccccc1)Cn1c(=O)n(-c3ccccc3)c(=O)n12", 0.302),
    ("CCOC(=O)C1=CCC(c2cccc(Cl)c2)O1 (stereo unspecified)", -0.505),
    ("C=CCNC(=O)[C@H]1[C@@H]2C(=O)O[C@@H](c3ccccc3)[C@@H](c3ccccc3)N2[C@@H](c2ccc(O)cc2)[C@]12C(=O)N(C(=O)OCCOC)c1ccc(C#CC3(O)CCCCCC3)cc12", 0.678),
    ("Cc1ccc(S[C@]2(C(=O)NCC(C)C)CC(=O)N(C3CCCCC3)[C@@H]2c2ccc(CO)cc2I)cc1", -0.284),
    ("CCCCC(CC)C(O)C1C=CC2C(=O)NC(=O)C2N1Nc1ccccn1 (stereo unspecified)", -0.539),
]

----------
Listed here: items and their measured z-score.
experiment: growth modulation of vineyard yeast isolate – strain RM11-1a, OD600, basal, 24 h, primary screen (AID 1177);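 note: cultures grown under basal conditions with no added stressor; test concentration not given here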; conditions: S. cerevisiae RM11-1a growth, OD600, 24 h; higher = more signal, called active from +8 up or from −8 down
Active and inactive are the calls of the source.
property: z-score

# molecule, result
measured = [
    ("C[N+](C)(C)CCCC[C@@H]1NC(=O)[C@@H]2C[C@H](C(=O)NCCCCCNC(=O)CS)[C@H](c3cccc(OCCO)c3)N2C1=O", "0.342 (inactive)"),
    ("C[C@H]1NC(=O)C([C@@H](C)OCc2ccccc2)NC(=O)[C@@]23C(=O)N[C@@H](Cc4ccccc4)C2[C@H](C)[C@@]2(C)O[C@H]2C3/C=C/CC/C=C/CNC1=O (some centres undefined)", "0.604 (inactive)"),
    ("CCC[C@@H]1C[C@@]1(CCC)[C@@H](NC(=O)c1cccs1)c1ccc(Cl)cc1", "0.235 (inactive)"),
    ("COC(=O)C(CC#Cc1ccc2c(c1)[C@]1(C(=O)N2)[C@H](C(=O)N2CCc3cc(OC)c(OC)cc3C2)[C@H]2C(=O)O[C@H](c3ccccc3)[C@H](c3ccccc3)N2[C@@H]1c1ccc(OCCO)cc1)C(=O)OC", "4.29 (inactive)"),
    ("CCOc1cc(C(O)C2C=CC3C(=O)NC(=O)C3N2Nc2ccccn2)ccc1O (centres undefined)", "0.24 (inactive)"),
    ("C[C@]12C(=O)N(CCCCCO)[C@@H]3C(=O)N(c4ccc(Cl)cc4)CC=CC31O[C@@H]1/C=C\\CCCOC(=O)C12 (some centres undefined)", "-0.605 (inactive)"),
    ("O=C(NCc1ccccc1)[C@]1(Cc2ccccc2)N=C(c2ccc(OCCCO)cc2)O[C@@H]1c1ccccc1", "3.75 (inactive)"),
    ("COC(=O)C(CC#Cc1ccc2c(c1)[C@]1(C(=O)N2)[C@H](c2ccc(OCCO)cc2)N2[C@H](c3ccccc3)[C@H](c3ccccc3)OC(=O)[C@H]2[C@@H]1C(=O)O)C(=O)OC", "1.48 (inactive)"),
    ("NC(=O)NCC#Cc1ccc2c(c1)[C@]1(C(=O)N2)[C@H](c2ccc(O)cc2)N2[C@H](c3ccccc3)[C@H](c3ccccc3)OC(=O)[C@H]2[C@@H]1C(N)=O", "0.603 (inactive)"),
    ("COCCCNC(=O)[C@@]1(Cc2ccccc2I)c2ccccc2C(=O)N(Cc2ccccc2Cl)[C@H]1c1ccc(CO)cc1", "-0.0403 (inactive)"),
    ("COCCOC(=O)N1C(=O)[C@@]2(c3cc(C#CCCO)ccc31)[C@H](C(=O)NC[C@H](O)c1ccccc1)[C@H]1C(=O)O[C@H](c3ccccc3)[C@H](c3ccccc3)N1[C@@H]2c1ccccc1OCCO", "1.88 (inactive)"),
    ("N#Cc1ccc(NN2C(C(O)c3ccco3)C=CC3C(=O)N(c4ccccc4)C(=O)C32)cc1 (centres undefined)", "0.293 (inactive)"),
    ("CC(C)c1ccc(NN2C(C(O)c3ccccn3)C=CC3C(=O)N(c4ccccc4)C(=O)C32)cc1 (centres undefined)", "1.92 (inactive)"),
    ("CCCNC(=O)[C@@]1(Sc2ccc(C)cc2)CC(=O)N(Cc2ccccc2)[C@@H]1c1ccc(CO)cc1I", "-0.598 (inactive)"),
]
